protocol-summary: Chemical stability assessed as half life at 1 mg/ml in presence of trypsin incubated for 24 hrs by RP-HPLC
Assay type: physicochemical
test-parameters: trypsin
Non-standard residues stand in square brackets, D forms with d. Residues, ends and D or L forms follow the SMILES beside them. *: point of attachment. Phe(4-guanidino) = N=C(N)Nc1ccc(C[C@H](N)C(=O)O)cc1; Bip = N[C@@H](Cc1ccc(-c2ccccc2)cc1)C(=O)O; hArg = N=C(N)NCCCC[C@H](N)C(=O)O; Agp = N=C(N)NC[C@H](N)C(=O)O; Orn = NCCC[C@H](N)C(=O)O; NHBn = c1ccc(CN*)cc1
I would appreciate it if you labelled entries satisfied when half-life at 1 mg/ml is 2 h or higher, otherwise not satisfied.

Use these answered entries as a reference point.
molecule: N=C(N)NCCCC[C@H](N)C(=O)N[C@@H](Cc1ccc(-c2ccccc2)cc1)C(=O)N[C@@H](CCCNC(=N)N)C(=O)NCc1ccccc1 (H-[hArg]-[Bip]-Arg-NHBn)
category: not satisfied

molecule: N=C(N)Nc1ccc(C[C@H](N)C(=O)N[C@@H](Cc2ccc(-c3ccccc3)cc2)C(=O)N[C@@H](CCCCN)C(=O)NCc2ccccc2)cc1 (H-[Phe(4-guanidino)]-[Bip]-Lys-NHBn)
category: satisfied

molecule: NCCCC[C@H](NC(=O)[C@H](Cc1ccc(-c2ccccc2)cc1)NC(=O)[C@@H](N)CCCCN)C(=O)NCc1ccccc1 (H-Lys-[Bip]-Lys-NHBn)
category: satisfied

molecule: N=C(N)NCCC[C@H](NC(=O)[C@H](Cc1ccc(-c2ccccc2)cc1)NC(=O)[C@@H](N)CNC(=N)N)C(=O)NCc1ccccc1 (H-[Agp]-[Bip]-Arg-NHBn)
category: not satisfied

molecule: N=C(N)NCCC[C@H](NC(=O)[C@@H](N)CCCNC(=N)N)C(=O)N[C@@H](Cc1ccc(-c2ccccc2)cc1)C(=O)NCc1ccccc1 (H-Arg-Arg-[Bip]-NHBn)
category: not satisfied

Req: Record N=C(N)NCCC[C@H](NC(=O)[C@@H](N)CCCNC(=N)N)C(=O)N[C@@H](Cc1c[nH]c2ccccc12)C(=O)NCc1ccccc1 (H-Arg-Arg-Trp-NHBn) ; criterion: half-life at 1 mg/ml no lower than 2 h. Met?
Resp: not satisfied

Req: Record N=C(N)NCCC[C@H](NC(=O)[C@H](Cc1ccc(-c2ccccc2)cc1)NC(=O)[C@@H](N)CCCNC(=N)N)C(=O)NCc1ccccc1 (H-Arg-[Bip]-Arg-NHBn) ; criterion: half-life at 1 mg/ml no lower than 2 h. Met?
Resp: not satisfied

Req: Could you please find out whether N=C(N)Nc1ccc(C[C@H](NC(=O)[C@H](Cc2ccc(-c3ccccc3)cc2)NC(=O)[C@@H](N)Cc2ccc(NC(=N)N)cc2)C(=O)NCc2ccccc2)cc1 (H-[Phe(4-guanidino)]-[Bip]-[Phe(4-guanidino)]-NHBn) has half-life at 1 mg/ml that meets 2 h or exceeds it?
Resp: satisfied

Req: Decide: is the reported value of half-life at 1 mg/ml for N=C(N)NCCC[C@H](NC(=O)[C@H](Cc1ccc(-c2ccccc2)cc1)NC(=O)[C@@H](N)Cc1ccc(NC(=N)N)cc1)C(=O)NCc1ccccc1 (H-[Phe(4-guanidino)]-[Bip]-Arg-NHBn) equal to or greater than 2 h?
Resp: not satisfied

Req: Kindly determine if half-life at 1 mg/ml recorded for N=C(N)Nc1ccc(C[C@H](NC(=O)[C@H](Cc2ccc(-c3ccccc3)cc2)NC(=O)[C@@H](N)CCCCN)C(=O)NCc2ccccc2)cc1 (H-Lys-[Bip]-[Phe(4-guanidino)]-NHBn) is above or exactly 2 h.
Resp: satisfied

Req: Would you say N=C(N)NCCC[C@H](N)C(=O)N[C@@H](Cc1ccc(-c2ccccc2)cc1)C(=O)N[C@@H](Cc1ccc(NC(=N)N)cc1)C(=O)NCc1ccccc1 shows half-life at 1 mg/ml at minimum 2 h?
Resp: satisfied

Req: Given N=C(N)NCCC[C@H](N)C(=O)N[C@@H](Cc1ccc(NC(=N)N)cc1)C(=O)N[C@@H](Cc1ccc(-c2ccccc2)cc1)C(=O)NCc1ccccc1 (H-Arg-[Phe(4-guanidino)]-[Bip]-NHBn) , state whether its half-life at 1 mg/ml is at least 2 h.
Resp: satisfied

Req: Can N=C(N)NCCC[C@H](NC(=O)[C@H](Cc1ccc(-c2ccccc2)cc1)NC(=O)[C@@H](N)CCCCN)C(=O)NCc1ccccc1 (H-Lys-[Bip]-Arg-NHBn) be said to have half-life at 1 mg/ml at or above 2 h?
Resp: not satisfied

Req: Determine whether this molecule has half-life at 1 mg/ml no lower than 2 h: N=C(N)NCCC[C@H](NC(=O)[C@H](Cc1ccc(-c2ccccc2)cc1)NC(=O)[C@@H](N)CCCN)C(=O)NCc1ccccc1 (H-[Orn]-[Bip]-Arg-NHBn)
Resp: satisfied

Req: Is reported half-life at 1 mg/ml greater than or equal to 2 h here: N=C(N)NCCC[C@H](N)C(=O)N[C@@H](Cc1ccc(-c2ccccc2)cc1)C(=O)N[C@@H](CCCCN)C(=O)NCc1ccccc1 (H-Arg-[Bip]-Lys-NHBn)
Resp: satisfied

Req: Confirm if half-life at 1 mg/ml reported for the molecule N=C(N)NCCC[C@H](N)C(=O)N[C@@H](Cc1ccc(NC(=N)N)cc1)C(=O)N[C@@H](Cc1c[nH]c2ccccc12)C(=O)NCc1ccccc1 (H-Arg-[Phe(4-guanidino)]-Trp-NHBn) is 2 h or above.
Resp: satisfied

====

protocol-summary: Half life in CD1 mouse liver whole organ extracts assessed as half life at 1 mg/ml at 37 degC by HPLC
Type: ADME, tissue-based
Non-standard residues stand in square brackets, D forms with d. Residues, ends and D or L forms follow the SMILES beside them. *: point of attachment. Bip = N[C@@H](Cc1ccc(-c2ccccc2)cc1)C(=O)O; hArg = N=C(N)NCCCC[C@H](N)C(=O)O; Agp = N=C(N)NC[C@H](N)C(=O)O; NHBn = c1ccc(CN*)cc1
Listed compounds paired with reported half-life at 1 mg/ml
Response body: numeric value in h, unit text excluded.

compound: N=C(N)NCCCC[C@H](NC(=O)[C@H](Cc1ccc(-c2ccccc2)cc1)NC(=O)[C@@H](N)CCCNC(=N)N)C(=O)NCc1ccccc1 (H-Arg-[Bip]-[hArg]-NHBn)
half-life at 1 mg/ml (h): 1.07
//
compound: N=C(N)NCCC[C@H](N)C(=O)N[C@@H](Cc1ccc(-c2ccccc2)cc1)C(=O)N[C@@H](CNC(=N)N)C(=O)NCc1ccccc1 (H-Arg-[Bip]-[Agp]-NHBn)
half-life at 1 mg/ml (h): 3.19

Req: Can you look up the measured half-life at 1 mg/ml of N=C(N)NCCC[C@H](NC(=O)[C@H](Cc1ccc(-c2ccccc2)cc1)NC(=O)[C@@H](N)CCCNC(=N)N)C(=O)NCc1ccccc1 (H-Arg-[Bip]-Arg-NHBn) for me?
Resp: 1.76

====

Tested on: Staphylococcus aureus
protocol-summary: Antimicrobial activity against Staphylococcus aureus ATCC 25923 by serial dilution method
Format: functional
Non-standard residues stand in square brackets, D forms with d. Residues, ends and D or L forms follow the SMILES beside them. *: point of attachment. Phe(4-guanidino) = N=C(N)Nc1ccc(C[C@H](N)C(=O)O)cc1; Bip = N[C@@H](Cc1ccc(-c2ccccc2)cc1)C(=O)O; Phe(4-NH2) = Nc1ccc(C[C@H](N)C(=O)O)cc1; Agp = N=C(N)NC[C@H](N)C(=O)O; Orn = NCCC[C@H](N)C(=O)O; NHBn = c1ccc(CN*)cc1
Examples of molecules with documented MIC follow.

molecule: N=C(N)NCCC[C@H](N)C(=O)N[C@@H](Cc1ccc(-c2ccccc2)cc1)C(=O)N[C@@H](CCCN)C(=O)NCc1ccccc1 (H-Arg-[Bip]-[Orn]-NHBn)
MIC: 5 µg/mL
--
molecule: N=C(N)NCCC[C@H](NC(=O)[C@@H](N)CCCNC(=N)N)C(=O)N[C@@H](Cc1c[nH]c2ccccc12)C(=O)NCc1ccccc1 (H-Arg-Arg-Trp-NHBn)
MIC: 25 µg/mL

Req: What value of MIC on Staphylococcus aureus does N=C(N)NC[C@H](NC(=O)[C@H](Cc1ccc(-c2ccccc2)cc1)NC(=O)[C@@H](N)CNC(=N)N)C(=O)NCc1ccccc1 (H-[Agp]-[Bip]-[Agp]-NHBn) have?
Resp: 10 µg/mL

Req: Checklist item: MIC tested on Staphylococcus aureus, entry N=C(N)NCCC[C@H](NC(=O)[C@@H](N)CCCNC(=N)N)C(=O)N[C@@H](Cc1ccc(-c2ccccc2)cc1)C(=O)NCc1ccccc1 (H-Arg-Arg-[Bip]-NHBn) , value?
Resp: 5 µg/mL

Req: Fill in the recorded MIC for this molecule, with Staphylococcus aureus as test system: N=C(N)NCCC[C@H](N)C(=O)N[C@@H](Cc1ccc(-c2ccccc2)cc1)C(=O)N[C@@H](CNC(=N)N)C(=O)NCc1ccccc1 (H-Arg-[Bip]-[Agp]-NHBn)
Resp: 5 µg/mL

Req: What reported MIC corresponds to N=C(N)NCCC[C@H](N)C(=O)N[C@@H](Cc1ccc(N)cc1)C(=O)N[C@@H](Cc1c[nH]c2ccccc12)C(=O)NCc1ccccc1 (H-Arg-[Phe(4-NH2)]-Trp-NHBn) on Staphylococcus aureus?
Resp: 75 µg/mL

Req: # get_value(readout= MIC, system= Staphylococcus aureus) for N=C(N)Nc1ccc(C[C@H](NC(=O)[C@H](Cc2ccc(-c3ccccc3)cc2)NC(=O)[C@@H](N)CCCCN)C(=O)NCc2ccccc2)cc1 (H-Lys-[Bip]-[Phe(4-guanidino)]-NHBn)
Resp: 5 µg/mL

Req: Request: MIC, test system Staphylococcus aureus, entry N=C(N)NCCC[C@H](NC(=O)[C@H](Cc1ccc(-c2ccccc2)cc1)NC(=O)[C@@H](N)CCCCN)C(=O)NCc1ccccc1 (H-Lys-[Bip]-Arg-NHBn)
Resp: 10 µg/mL
